molecular target: T1, Cyno CD47 ECD protein, His-tagged, monomer (cyno); experiment: ProteOn SPR; cyno KD / human KD
T1 construct: extracellular domain; also called cynomolgus CD47
recorded.endpoint: KD Ratio Cyno/Human
Give a plain numeric answer without units written out.

Completed entries (count: 4):
C47B219 (antibody, V domains shown, human IgG2sigma/kappa) VH: EVQLVQSGAEVKKPGESLKISCKGSGYSFTDSWIGWVRQMPGKGLEWMGIIYPGDSDTRYSPSFQGQVTISADKSISTAYLQWSSLKASDTAVYYCARVGRFASHQLDYWGQGTLVTVSS VL: EIVLTQSPATLSLSPGERATLSCRASQSVGSRLAWYQQKPGQAPRLLIYWASTRATGIPARFSGSGSGTDFTLTISSLEPEDFAVYYCQQGAYWPFTFGQGTKVEIK	0.6
C47B223 (antibody, V domains shown, human IgG2sigma/kappa) VH: EVQLVQSGAEVKKPGESLKISCKGSGYSFTDYWIGWVRQMPGKGLEWMGIIYPGDSDTRYSPSFQGQVTISADKSISTAYLQWSSLKASDTAVYYCARVGRFASHQLDYWGQGTLVTVSS VL: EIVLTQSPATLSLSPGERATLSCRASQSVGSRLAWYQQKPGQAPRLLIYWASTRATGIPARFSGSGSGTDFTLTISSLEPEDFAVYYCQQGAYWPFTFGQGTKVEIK	0.7
C47B222 (human IgG2sigma) (antibody, V domains shown, human IgG2sigma/kappa; also called IgG2 Fc-silent C47B222) VH: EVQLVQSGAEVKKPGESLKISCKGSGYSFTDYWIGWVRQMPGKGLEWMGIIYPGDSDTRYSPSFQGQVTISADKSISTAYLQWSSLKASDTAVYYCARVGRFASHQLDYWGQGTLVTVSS VL: EIVLTQSPATLSLSPGERATLSCRASQSVNNRLAWYQQKPGQAPRLLIHWASTRAIGIPARFSGSGSGTDFTLTISSLEPEDFAVYYCQQGASWPFTFGQGTKVEIK	0.8
C47B226 (antibody, V domains shown, human IgG2sigma/kappa; also called C27B226) VH: EVQLVQSGAEVKKPGESLKISCKGSGYSFDDYWIGWVRQMPGKGLEWMGIIYPGDSDTRYSPSFQGQVTISADKSISTAYLQWSSLKASDTAVYYCARVGRFASHQLDYWGQGTLVTVSS VL: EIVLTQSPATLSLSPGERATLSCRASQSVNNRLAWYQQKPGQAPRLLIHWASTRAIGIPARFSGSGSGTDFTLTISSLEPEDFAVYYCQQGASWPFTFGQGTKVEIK	0.6

Shifting focus to the binder that follows.
Quick one: KD Ratio Cyno/Human for C47B220 (antibody, V domains shown, human IgG2sigma/kappa) VH: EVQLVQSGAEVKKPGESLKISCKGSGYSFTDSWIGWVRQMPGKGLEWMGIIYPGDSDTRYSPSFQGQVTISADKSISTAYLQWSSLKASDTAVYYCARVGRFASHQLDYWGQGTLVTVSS VL: EIVLTQSPATLSLSPGERATLSCRASQSVSNRQAWYQQKPGQAPRLLIHSASNRATGIPARFSGSGSGTDFTLTISSLEPEDFAVYYCQQGRSWPFTFGQGTKVEIK ? 0.9
